Consider the following binders and their measured Kd readings.
# Study Target: VEGF-A121 (Homo sapiens (Human), UniProt P15692 27-147, none (E. coli))
# Sequence (P15692 other isoform, or with tags, fused parts or gaps): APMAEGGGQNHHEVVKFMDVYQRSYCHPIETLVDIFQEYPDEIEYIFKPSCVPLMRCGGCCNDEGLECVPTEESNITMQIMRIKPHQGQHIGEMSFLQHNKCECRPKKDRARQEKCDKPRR
# Assay Name: SPR; TBSE 10 mM Tris-HCl pH 7.0, 100 mM NaCl, 0.05 mM EDTA (folded with 50 mM KCl in Fig 3), 24 C; VEGF on CM5
# Cond: chain copies: 2
Output spec: scalar in nM, unitless text.

Vap7 (ssDNA, G-quadruplex) DNA: ATACCAGTCTATTCAATTGCACTCTGTGGGGGTGGACGGGCCGGGTAGATAGTATGTGCAATCA | 1

As a next step, examine the binder that follows.
Looking for the measured Kd of TGTGGGGGTGGACGGGCCGGGTAGA (ssDNA, G-quadruplex) [V7t1] , can you help?
1.1
